Measured IC50 of individual entries
Target: Abl kinase (Homo sapiens, UniProt P00519)
Sequence (P00519 whole entry): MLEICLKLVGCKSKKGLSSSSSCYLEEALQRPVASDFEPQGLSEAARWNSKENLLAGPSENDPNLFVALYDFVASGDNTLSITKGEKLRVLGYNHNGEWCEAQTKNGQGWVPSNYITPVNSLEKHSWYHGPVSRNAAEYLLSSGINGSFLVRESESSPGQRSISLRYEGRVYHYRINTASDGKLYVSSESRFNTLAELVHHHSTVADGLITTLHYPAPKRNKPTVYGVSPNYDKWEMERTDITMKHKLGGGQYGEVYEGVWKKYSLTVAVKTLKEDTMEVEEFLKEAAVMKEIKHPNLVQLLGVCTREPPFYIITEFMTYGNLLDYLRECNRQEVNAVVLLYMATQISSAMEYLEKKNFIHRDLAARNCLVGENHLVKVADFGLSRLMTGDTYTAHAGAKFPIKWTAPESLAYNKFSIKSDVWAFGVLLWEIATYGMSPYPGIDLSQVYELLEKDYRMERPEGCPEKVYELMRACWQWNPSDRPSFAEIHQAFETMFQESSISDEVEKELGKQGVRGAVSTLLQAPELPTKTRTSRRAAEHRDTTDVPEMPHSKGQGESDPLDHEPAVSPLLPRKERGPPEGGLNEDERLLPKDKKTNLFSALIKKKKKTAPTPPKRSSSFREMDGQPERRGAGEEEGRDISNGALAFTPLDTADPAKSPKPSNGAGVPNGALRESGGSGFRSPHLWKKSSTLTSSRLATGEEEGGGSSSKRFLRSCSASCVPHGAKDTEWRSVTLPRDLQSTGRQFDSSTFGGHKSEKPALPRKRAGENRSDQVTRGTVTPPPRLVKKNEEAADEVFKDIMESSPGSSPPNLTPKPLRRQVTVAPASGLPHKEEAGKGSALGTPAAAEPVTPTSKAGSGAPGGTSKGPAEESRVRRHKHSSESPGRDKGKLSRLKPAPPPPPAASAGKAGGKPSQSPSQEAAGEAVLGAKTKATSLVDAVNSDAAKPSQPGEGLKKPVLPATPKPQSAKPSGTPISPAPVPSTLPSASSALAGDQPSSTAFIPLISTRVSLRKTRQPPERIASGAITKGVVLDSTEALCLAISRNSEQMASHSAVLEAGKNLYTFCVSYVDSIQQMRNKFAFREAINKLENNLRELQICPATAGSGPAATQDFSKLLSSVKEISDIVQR
Test: biochemical
Settings: Abl IC50 (nM), Abl kinase (Invitrogen, 20 ng/well), Abltide 100 μM, ATP 500 nM, 37° C. for 60 minutes, top concentration 10 uM
Structures can show the parent of a compound that is named as a salt.

{"COMPOUND": "NC1CCN(S(=O)(=O)c2ccc(Nc3ncc(/C=C/c4cccc5[nH]ncc45)cn3)cc2)CC1", "IC50 / nM": 5.1}
{"COMPOUND": "Nc1nc2ccc(/C=C/c3cnc(Nc4ccc(S(=O)(=O)N(CCO)C5CCNCC5)cc4)nc3)cc2s1", "IC50 / nM": 84}
{"COMPOUND": "O=S(=O)(CCCN1CCNCC1)c1ccc(Nc2ncc(/C=C/c3cccc4[nH]ccc34)cn2)cc1", "IC50 / nM": 54}
{"COMPOUND": "O=C(Nc1cn2cc(/C=C/c3cnc(Nc4ccc(S(=O)(=O)C5CCNCC5)cc4)nc3)ccc2n1)C(F)(F)F [trifluoroacetic acid salt]", "IC50 / nM": 1130}
{"COMPOUND": "O=S(=O)(c1ccc(Nc2ncc(/C=C/c3cc(Cl)cc4[nH]nnc34)cn2)cc1)N1CCNCC1", "IC50 / nM": 61}
{"COMPOUND": "CN(C)CCN(C1CCNCC1)S(=O)(=O)c1ccc(Nc2ncc(/C=C/c3cccc4[nH]ncc34)cn2)cc1", "IC50 / nM": 10}
{"COMPOUND": "O=S(=O)(c1ccc(Nc2ncc(/C=C/c3ccc4c(c3)CC/C4=N/O)cn2)cc1)C1CCNCC1", "IC50 / nM": 593}
{"COMPOUND": "O=S(=O)(c1ccc(Nc2ncc(/C=C/c3ccc(-c4cn[nH]c4)cc3)cn2)cc1)N1CCNCC1", "IC50 / nM": 3800}

* * *

Target: Abl kinase (Homo sapiens)
Assay: biochemical
Details: Abl IC50 (nM), Abl kinase (Invitrogen, 20 ng/well), Abltide 100 μM, ATP 500 nM, 37° C. for 60 minutes, top concentration 10 uM
Counter-ions that a name gives are not always drawn.
Form field: log10 of IC50 (one value per entry).
ASSAY_ENDPOINT: log10 of IC50 (log10 of the value in nM)

{"MOLECULE": "Cc1ccc(/C=C/c2cnc(Nc3ccc(S(=O)(=O)C4CCNCC4)cc3)nc2)c2cc[nH]c12 [Hydrochloride]", "log10 of IC50": 1.76}
{"MOLECULE": "CN1CCN(S(=O)(=O)c2cccc(Nc3ncc(/C=C/c4cccc5[nH]ccc45)cn3)c2)CC1", "log10 of IC50": 2.89}
{"MOLECULE": "Nc1nc2ccc(/C=C/c3cnc(Nc4ccc(S(=O)(=O)C5CCNCC5)cc4)nc3)cc2s1 [trifluoroacetic acid salt]", "log10 of IC50": 1.70}
{"MOLECULE": "O=S(=O)(c1ccc(Nc2ncc(/C=C/c3cccc4[nH]ncc34)cn2)cc1)N1CCNCC1", "log10 of IC50": 1.64}
{"MOLECULE": "O=S(=O)(NCCN1CCCC1)c1ccc(Nc2ncc(/C=C/c3cccc(O)c3)cn2)cc1", "log10 of IC50": 0.85}
{"MOLECULE": "Cc1cc(Nc2ncc(/C=C/c3ccc4nc(N)sc4c3)cn2)ccc1S(=O)(=O)N1CCCNCC1", "log10 of IC50": 3.03}
{"MOLECULE": "O=S(=O)(c1ccc(Nc2ncc(/C=C/c3ccc4c(c3)CC/C4=N/O)cn2)cc1)C1CCNCC1", "log10 of IC50": 3.38}
{"MOLECULE": "O=S(=O)(c1ccc(Nc2ccc(/C=C/c3cccc(O)c3)cn2)cc1)C1CCNCC1 [hydrochloride]", "log10 of IC50": 1.51}
{"MOLECULE": "Oc1cccc(/C=C/c2cnc(Nc3ccc(OCCN4CCCC4)cc3)nc2)c1 [trifluoroacetate]", "log10 of IC50": 1.48}
{"MOLECULE": "C(=C\\c1cccc2[nH]ncc12)/c1cnc(Nc2ccc(OC3CCNCC3)cc2)nc1 [trifluoroacetic acid salt]", "log10 of IC50": 0.90}
{"MOLECULE": "O=S(=O)(NC1CCNCC1)c1ccc(Nc2ncc(/C=C/c3cccc(O)c3)cn2)cc1 [Hydrochloride]", "log10 of IC50": 0.66}
{"MOLECULE": "O=S(=O)(c1ccc(Nc2ncc(/C=C/c3ccccc3)cn2)cc1NCCO)N1CCNCC1 [trifluoroacetic acid salt]", "log10 of IC50": 2.12}
